target: acetylcholine receptor; experiment: SPR, receptor immobilized, peptide 10 uM
quantity.name: log10 Binding affinity (RU) (log10 of the value in RU)

{"binder": "KISGK [5mer-1090]", "log10 Binding affinity (RU)": 1.49}
{"binder": "RETMK [5mer-798]", "log10 Binding affinity (RU)": 1.11}
{"binder": "KRQICR [6mer-1-184]", "log10 Binding affinity (RU)": 2.14}
{"binder": "RKWRRK [6mer-1-196]", "log10 Binding affinity (RU)": 2.15}
{"binder": "KKLYSR [6mer-1-154]", "log10 Binding affinity (RU)": 2.18}
{"binder": "RPNVR [5mer-1081]", "log10 Binding affinity (RU)": 1.11}
{"binder": "KRGICK [6mer-1-182]", "log10 Binding affinity (RU)": 2.17}
{"binder": "RCTVRK [6mer-2-838]", "log10 Binding affinity (RU)": 1.11}
{"binder": "RKLFYK [6mer-1-187]", "log10 Binding affinity (RU)": 2.14}
{"binder": "RKLYQK [6mer-1-141]", "log10 Binding affinity (RU)": 2.15}
{"binder": "RPTMKR [6mer-2-821]", "log10 Binding affinity (RU)": 1.52}
{"binder": "KCNDKK [6mer-2-817]", "log10 Binding affinity (RU)": 1.34}
{"binder": "KPPEKR [6mer-2-812]", "log10 Binding affinity (RU)": 1.52}
{"binder": "RPNIRK [6mer-2-801]", "log10 Binding affinity (RU)": 1.38}
{"binder": "KKVYYK [6mer-1-142]", "log10 Binding affinity (RU)": 2.09}
{"binder": "KYHNRR [6mer-2-832]", "log10 Binding affinity (RU)": 1.51}
{"binder": "RCTPK [5mer-1056]", "log10 Binding affinity (RU)": 1.04}
